- run.description: Evaluation of maximum absorption wavelength (absorption spectrum in tetrahydrofuran solution)
- Type: physicochemical
- test.conditions: 1×10^−6 mol/L, optical path length 10 mm (Table 7)
observable: Absorption maximum wavelength (nm)
I only need the number, in nm, no unit after it.

COC(=O)c1ccccc1N=Nc1ccc(N=Nc2ccc3c4c(cccc24)NC(C)(C)N3)c2ccccc12 = 599
CC1CCCCC12Nc1cccc3c(N=Nc4ccc(N=Nc5ccccc5Cl)c5ccccc45)ccc(c13)N2 (stereo not shown) = 629
CC1(CC#N)Nc2cccc3c(N=Nc4ccc(N=Nc5ccccc5Cl)c5ccccc45)ccc(c23)N1 (stereo not shown) = 604

From here, focus on the item given below.
Entry CCC1(C)Nc2cccc3c(N=Nc4ccc(N=Nc5ccccc5Cl)c5ccccc45)ccc(c23)N1 (stereo not shown) needs its Absorption maximum wavelength filled in; supply it.
627

---

The following molecules are listed with their measured Absorption maximum wavelength values.
- run.description: Evaluation of maximum absorption wavelength (absorption spectrum in tetrahydrofuran solution)
- Assay type: physicochemical
- test.conditions: 1×10^−6 mol/L, optical path length 10 mm (Table 7)
I only need the number, in nm, no unit after it.

Here is how some molecules turned out for Absorption maximum wavelength.
CC(C)NC(=O)OCC1(C)Nc2cccc3c(N=Nc4ccc(N=Nc5ccccc5Cl)c5ccccc45)ccc(c23)N1 (stereo not drawn) [(1-21)] = 623
CCCCCC1(C)Nc2cccc3c(N=Nc4ccc(N=Nc5ccccc5Cl)c5ccccc45)ccc(c23)N1 (stereo not drawn) [(1-9)] = 629
CC(C)(C)C1(C)Nc2cccc3c(N=Nc4ccc(N=Nc5ccccc5Cl)c5ccccc45)ccc(c23)N1 (stereo not drawn) [(1-8)] = 631
CCCCC1(C)Nc2cccc3c(N=Nc4ccc(N=Nc5ccccc5Cl)c5ccccc45)ccc(c23)N1 (stereo not drawn) [(1-5)] = 629
CCCCCC1(C)Nc2cccc3c(N=Nc4ccc(N=Nc5ccccc5C(C)=O)c5ccccc45)ccc(c23)N1 (stereo not drawn) [(1-50)] = 629
CC1(CC(N)=O)Nc2cccc3c(N=Nc4ccc(N=Nc5ccccc5Cl)c5ccccc45)ccc(c23)N1 (stereo not drawn) [(1-62)] = 607
CC1(CO)Nc2cccc3c(N=Nc4ccc(N=Nc5ccccc5Cl)c5ccccc45)ccc(c23)N1 (stereo not drawn) [(1-17)] = 622
CC(C)C1(C)Nc2cccc3c(N=Nc4ccc(N=Nc5ccccc5Cl)c5ccccc45)ccc(c23)N1 (stereo not drawn) [(1-4)] = 631
CC1(C)Nc2cccc3c(N=Nc4ccc(N=Nc5ccccc5Cl)c5ccccc45)ccc(c23)N1 [(1-1)] = 624
CC1(Cc2ccccc2)Nc2cccc3c(N=Nc4ccc(N=Nc5ccccc5Cl)c5ccccc45)ccc(c23)N1 (stereo not drawn) [(1-64)] = 631

Entry CCCCC(CC)C(=O)OCC1(C)Nc2cccc3c(N=Nc4ccc(N=Nc5ccccc5Cl)c5ccccc45)ccc(c23)N1 (stereo not drawn) [(1-20)] needs its Absorption maximum wavelength filled in; supply it.
623

Entry CC1(C)Nc2cccc3c(N=Nc4ccc(N=Nc5ccccc5C#N)c5ccccc45)ccc(c23)N1 [(1-38)] needs its Absorption maximum wavelength filled in; supply it.
648

Entry CC1(C)Nc2cccc3c(N=Nc4ccc(N=Nc5ccccc5F)c5ccccc45)ccc(c23)N1 [(1-31)] needs its Absorption maximum wavelength filled in; supply it.
619

Entry CC1(C)Nc2cccc3c(N=Nc4ccc(N=Nc5ccccc5Br)c5ccccc45)ccc(c23)N1 [(1-34)] needs its Absorption maximum wavelength filled in; supply it.
621

Entry CC1(C)Nc2cccc3c(N=Nc4ccc(N=Nc5ccccc5C(=O)c5ccccc5)c5ccccc45)ccc(c23)N1 [(1-59)] needs its Absorption maximum wavelength filled in; supply it.
639

Entry CCCC1(C)Nc2cccc3c(N=Nc4ccc(N=Nc5ccccc5Cl)c5ccccc45)ccc(c23)N1 (stereo not drawn) [Compound (1-3)] needs its Absorption maximum wavelength filled in; supply it.
629

Entry CC1(C)Nc2cccc3c(N=Nc4ccc(N=Nc5ccccc5[N+](=O)[O-])c5ccccc45)ccc(c23)N1 [(1-36)] needs its Absorption maximum wavelength filled in; supply it.
638

Entry CC(=O)c1ccccc1N=Nc1ccc(N=Nc2ccc3c4c(cccc24)NC(C)(C)N3)c2ccccc12 [(1-48)] needs its Absorption maximum wavelength filled in; supply it.
624
